Assay read-out IC50; system under study: MAP kinase-interacting serine/threonine-protein kinase 1 (Homo sapiens, UniProt Q9BUB5).
Sequence (Q9BUB5 whole entry): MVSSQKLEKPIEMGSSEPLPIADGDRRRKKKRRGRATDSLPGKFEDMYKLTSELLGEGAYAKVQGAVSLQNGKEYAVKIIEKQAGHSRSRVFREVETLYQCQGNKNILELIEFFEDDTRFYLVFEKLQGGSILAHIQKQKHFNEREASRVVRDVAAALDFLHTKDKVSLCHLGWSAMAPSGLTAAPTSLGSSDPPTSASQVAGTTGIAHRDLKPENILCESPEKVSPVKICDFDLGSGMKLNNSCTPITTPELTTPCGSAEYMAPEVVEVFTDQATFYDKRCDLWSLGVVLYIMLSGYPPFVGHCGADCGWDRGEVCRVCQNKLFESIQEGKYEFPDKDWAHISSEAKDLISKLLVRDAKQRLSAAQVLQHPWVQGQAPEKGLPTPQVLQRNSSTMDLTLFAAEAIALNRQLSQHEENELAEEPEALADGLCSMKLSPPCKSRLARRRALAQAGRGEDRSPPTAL
Write the answer as a number in nM, unit excluded.

O=C1OCCOc2cc(F)ccc2Nc2ncnc3[nH]c4c(c23)CC1CC4 (centres undefined) : 3540
COc1cc2[nH]ncc2cc1Nc1ncnc2[nH]c3c(c12)CC(C(=O)NCc1ccccc1)CC3 (centres undefined) : 1
CCNC(=O)C1CCc2[nH]c3ncnc(Nc4cc5cn[nH]c5cc4OC)c3c2C1 (centres undefined) : 6

# context switch: different compound, same IC50
Lab request: please report IC50 under test system MAP kinase-interacting serine/threonine-protein kinase 1 (Homo sapiens, UniProt Q9BUB5) for "CC(C)Oc1cc2[nH]ncc2cc1Nc1ncnc2[nH]c3c(c12)CCCC3"
5

Data origin: ChEMBL document CHEMBL3352740
